Recorded values, source patent US20210363269A1.

# Target entity: T1, human SIRP-α v1 D1 domain (human, UniProt P78324 31-149)
# T1 construct: also called human v1
# T1 sequence (P78324 31-149 limits assumed): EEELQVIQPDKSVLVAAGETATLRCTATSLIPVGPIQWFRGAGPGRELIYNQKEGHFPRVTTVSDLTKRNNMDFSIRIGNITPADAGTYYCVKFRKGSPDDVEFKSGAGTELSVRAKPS
# Assay protocol: SPR, Langmuir fit
Each entry below carries its recorded koff.
Parameter measured: koff (s⁻¹)

>>> measured("S24 (scFv, V domains shown, also called clone 24) VH: DVQLVESGGGVVRPGESLRLSCAASGFTFSSNAMSWVRQAPGKGLEWLAGISAGGSDTYYPASVKGRFTISRDNPKNTLYLQMNTLTAEDTAVYYCARETWNHLFDYWGLGTLVTVSS VL: ALTQPASVSANPGETVKIACSGGSYYSYYYGWYQQKSPGSALVTVIYSDDKRPSGIPSRFSGSASGSTATLTITGVRAEDEAVYYCGGYDYSSYTNDFGAGTTLTVL")
0.000257
>>> measured("S16 (scFv, V domains shown, also called clone 16) VH: DVQLVESGGGVVRPGESLRLSCAVSGFRFSSYAMSWVRQAPGKGLEWVSGISSGGDTYYVDSVKGRFTISRDNSKNTLYLQVNSLTAEDTAIYYCARETWNHLFDYWGLGTLVTVSS VL: ALTQPASVSANLGETVKITCSGGDSSSHYYGWYQQKSPGSAPVTVIYSDDERPSDIPSRFSGSASGSTATLTITGVRVEDEAIYYCGAYDGSTYANTFGAGTTLTVL")
"6.22e-05"
>>> measured("S194 (scFv, V domains shown) VH: DVQLVESGGGVVRPGESLRLSCAASGFTFRNYGMSWVRQAPGEGLEWVSASSGSGSTYYADSVKGRFTISRDNSKNTLYLQMNSLRAEDTAIYYCAKVTWNNFFDYWGLGTLVTVSS VL: EIVLAQSPDTLSVSPGERATLTCRASQDVAGKLAWYQQKPGQAPRLLIHATSSRADGIPARFSGSGSGTEFTLTITGLQSEDFAVYYCQQHYDWSPLTFGGGTKVEIK")
0.00117
>>> measured("S69 (scFv, V domains shown, also called clone 69) VH: DLQLVESGGGVVRPGESLRLSCAASGFTFSSYAMSWVRQAPGKGLEWLAGISAGGSDTYYIDSVKGRFTISRDNSKNSLYLQMNSLTAEDTAVYYCARETWNHLFDYWGLGTLVTVSS VL: ALTQPASVSANPGETVKIICSGGDYYSTYYGWYQQKSPGSAPVTVIHSDDKRPSDIPSRFSGSASGSAATLTITGVRVEDEAVYFCGAYDGRTYINTFGAGTTLTVL")
0.000205
>>> measured("S202 (scFv, V domains shown) VH: DVQLVESGGGVVRPGESLRLSCAASGFTFSSYAMSWVRQAPGKGLEWLAGISAGGSDTYYIDSVKGRFTISRDNSKNSLYLQMNSLTAEDTAVYYCARETWNHLFDYWGLGTLVTVSS VL: ALTQPASVSANPGETVKITCSGGGYYSTYYGWYQQRSPGSAPVTVIHSDDKRPSDIPSRFSGSASGSAATLTITGVRVEDEAVYYCAGYDGRTYLNTFGAGTTLTVL")
"3.75e-05"
